target: UniProtKB P41145; test: cell-based; conditions: BRET pEC50
Sequence (P41145 whole entry): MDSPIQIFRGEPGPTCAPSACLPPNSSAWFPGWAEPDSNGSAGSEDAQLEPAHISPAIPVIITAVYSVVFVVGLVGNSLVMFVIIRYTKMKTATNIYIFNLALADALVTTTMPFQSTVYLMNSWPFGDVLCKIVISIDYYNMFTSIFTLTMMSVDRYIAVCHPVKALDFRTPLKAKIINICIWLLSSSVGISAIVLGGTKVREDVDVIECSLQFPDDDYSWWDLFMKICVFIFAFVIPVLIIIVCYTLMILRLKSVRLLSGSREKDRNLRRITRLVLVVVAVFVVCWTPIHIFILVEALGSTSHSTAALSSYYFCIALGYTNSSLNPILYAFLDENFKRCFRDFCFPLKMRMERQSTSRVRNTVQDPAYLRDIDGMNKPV
READOUT NAME: pEC50
The value called pEC50 is obtained by taking minus log10 of the concentration in mol/L.

Q: Consider the compound shown here: CN(C(=O)C(c1ccccc1)c1ccccc1)[C@H](CN1CC[C@H](O)C1)c1ccccc1 [Asimadoline] What is its recorded pEC50?
Ans: 9.20

// provenance: paper PMC4974614
